# METHOD DESCRIPTION: Metabolic stability in mouse liver microsomes assessed as parent compound remaining incubated for 10 mins
# Format: ADME, Microsome
# PARTICULARS: read-out: Stabilty
Quick rule for you: remaining at 10 min under 70% gets True, anything else gets False.

Quick check: remaining at 10 min of C[C@]1(c2ccc(F)cc2)CN(C(=O)NCc2ccc3c(c2)OCO3)C[C@H]1c1ccc(C(O)(C(F)(F)F)C(F)(F)F)cc1 under 70%?
True

More entries:
Quick check: remaining at 10 min of C[C@]1(c2ccc(F)cc2)CN(C(=O)NCc2ccncc2)C[C@H]1c1ccc(C(O)(C(F)(F)F)C(F)(F)F)cc1 under 70%?
True

Quick check: remaining at 10 min of C[C@]1(c2ccc(F)cc2)CN(C(=O)C2CCN(C(=O)CO)CC2)C[C@H]1c1ccc(C(O)(C(F)(F)F)C(F)(F)F)cc1 under 70%?
False
